B1: TEKT4 (parent)
chain: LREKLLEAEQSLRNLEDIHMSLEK

variants of: B1; assay: protein stability index of a GFP-peptide fusion (GPS, HEK-293T) (PSI 1-6); higher = more stable; conditions: c terminus: a fixed tail appended;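 further: lentivirally expressed fusions sorted by FACS into six bins by GFP to DsRed ratio, PSI derived from sequencing read proportions per bin multiplied by bin number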
The threshold is inclusive: protein stability index of exactly 3 counts as Satisfied; values below receive Not satisfied.

INSERT INTO assay_data (var, cat) VALUES
  ('E23C', 'Satisfied'),
  ('S11I', 'Satisfied'),
  ('H19K', 'Not satisfied'),
  ('E16I', 'Not satisfied'),
  ('E16K', 'Not satisfied'),
  ('E16A', 'Not satisfied'),
  ('A8D', 'Not satisfied'),
  ('R13L', 'Not satisfied');

Turning now to a further record.
# input Exam item: decide whether the reported protein stability index for Q10P is at least 3.
# output Satisfied
